# credit: patent US20240101576A1

IC50 values, listed per item
- SYSTEM TESTED: EGFR exon 20 NPG Ins D770_N771 (Ba/F3 cells) (Homo sapiens, UniProt P00533, INS770NPG)
- Construct: expressed in transfected cells; host or cells: Ba/F3 (murine pro-B cells), retroviral transduction, puromycin selection, IL3-independent pool
- Sequence (P00533 with tags, fused parts or gaps INS770NPG): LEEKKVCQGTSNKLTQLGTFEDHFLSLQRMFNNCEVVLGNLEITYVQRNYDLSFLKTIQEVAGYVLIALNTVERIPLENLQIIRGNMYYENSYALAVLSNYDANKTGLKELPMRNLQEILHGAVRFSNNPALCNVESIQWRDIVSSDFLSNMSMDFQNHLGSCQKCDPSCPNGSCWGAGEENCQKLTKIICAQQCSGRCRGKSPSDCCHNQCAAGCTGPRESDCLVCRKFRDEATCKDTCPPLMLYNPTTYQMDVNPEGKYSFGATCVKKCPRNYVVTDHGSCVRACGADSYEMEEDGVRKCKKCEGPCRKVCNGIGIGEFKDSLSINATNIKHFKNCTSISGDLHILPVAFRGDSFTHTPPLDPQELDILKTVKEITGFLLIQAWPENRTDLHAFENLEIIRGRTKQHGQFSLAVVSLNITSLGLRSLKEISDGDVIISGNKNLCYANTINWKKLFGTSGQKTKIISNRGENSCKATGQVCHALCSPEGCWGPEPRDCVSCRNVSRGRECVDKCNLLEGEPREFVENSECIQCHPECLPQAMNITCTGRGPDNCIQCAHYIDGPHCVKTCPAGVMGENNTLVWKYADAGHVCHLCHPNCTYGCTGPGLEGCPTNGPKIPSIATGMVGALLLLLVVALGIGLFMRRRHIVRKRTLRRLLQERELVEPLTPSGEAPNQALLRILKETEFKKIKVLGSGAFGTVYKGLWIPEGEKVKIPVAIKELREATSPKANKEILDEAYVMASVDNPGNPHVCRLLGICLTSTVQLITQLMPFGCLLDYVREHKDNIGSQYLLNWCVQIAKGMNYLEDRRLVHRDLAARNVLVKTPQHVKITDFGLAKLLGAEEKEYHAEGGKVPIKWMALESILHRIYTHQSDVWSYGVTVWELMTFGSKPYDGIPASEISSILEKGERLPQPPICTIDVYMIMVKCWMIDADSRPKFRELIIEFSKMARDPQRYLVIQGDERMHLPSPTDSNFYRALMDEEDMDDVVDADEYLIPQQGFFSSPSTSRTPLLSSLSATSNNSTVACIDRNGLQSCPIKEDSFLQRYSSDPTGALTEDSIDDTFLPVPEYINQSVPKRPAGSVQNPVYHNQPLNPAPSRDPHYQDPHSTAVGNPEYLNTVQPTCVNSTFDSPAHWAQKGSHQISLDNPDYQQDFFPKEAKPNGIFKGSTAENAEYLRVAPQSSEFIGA
- TEST DETAILS: Inhibitor activity on EGFR-dependent cell growth (CellTiter-Glo, 72 h), Ba/F3 EGFR exon 20 NPG Ins
- Type: cell-based
- TEST SETTINGS: read-out: BaF3 NPG IC50

Consider the compound `CCO[C@H](C)c1ccc2nccc(-c3[nH]c4c(c3Nc3cccc(Cl)c3OC)C(=O)NCC4)c2n1` and give its recorded IC50.
< 100 nM

Consider the compound `COc1c(Cl)cccc1Nc1c(-c2ccnc3ccc(OC[C@@H]4CCO4)nc23)[nH]c2c1C(=O)NCC2` and give its recorded IC50.
< 100 nM

Consider the compound `CSc1c(F)cccc1Nc1c(-c2ccnc(N)n2)[nH]c2c1C(=O)NCC2` and give its recorded IC50.
100 to 1000 nM

Consider the compound `COc1c(Cl)cccc1Nc1c(-c2ccnc(C)n2)[nH]c2c(C[C@H]3COCCO3)c[nH]c(=O)c12` and give its recorded IC50.
< 100 nM

Consider the compound `CC#CC(=O)N1CCC2(CC1)CNC(=O)c1c2[nH]c(-c2ccncc2F)c1Nc1cccc(Cl)c1OC` and give its recorded IC50.
> 1000 nM

Consider the compound `COc1c(Cl)cccc1Nc1c(-c2ccncc2F)[nH]c2c1C(=O)NCC21CN(CC(F)F)C1` and give its recorded IC50.
100 to 1000 nM

Consider the compound `CNc1nccc(-c2[nH]c3c(c2Nc2cccc(F)c2OC)C(=O)NCC3)n1` and give its recorded IC50.
100 to 1000 nM

---

- SYSTEM TESTED: EGFR exon 20 NPG Ins D770_N771 (Ba/F3 cells) (Homo sapiens, UniProt P00533, INS770NPG)
- Construct: expressed in transfected cells; host or cells: Ba/F3 (murine pro-B cells), retroviral transduction, puromycin selection, IL3-independent pool
- TEST DETAILS: Inhibitor activity on EGFR-dependent cell growth (CellTiter-Glo, 72 h), Ba/F3 EGFR exon 20 NPG Ins
- Format: cell-based
- TEST SETTINGS: read-out: BaF3 NPG IC50
MEASURE NAME: IC50

Worked cases, IC50 given:
COc1c(F)cccc1Nc1c(-c2ncnc3sccc23)[nH]c2c1C(=O)NCC2 [compound 138]
> 1000 nM
COc1c(F)cccc1Nc1c(-c2ccncn2)[nH]c2c1C(=O)NCC2C[C@H]1COCCO1 (single isomer, unassigned) [Compound 572]
100 to 1000 nM

Find the measured IC50 of Cc1c(Cl)cccc1Nc1c(-c2ccnc(N)n2)[nH]c2c1C(=O)NCC2 [compound 725, trifluoroacetic acid] with EGFR exon 20 NPG Ins D770_N771 (Ba/F3 cells) (Homo sapiens, UniProt P00533, INS770NPG) as test system.
< 100 nM

Find the measured IC50 of C=CC(=O)N1CCC2(CC1)CNC(=O)c1c2[nH]c(-c2ccncc2F)c1Nc1ccc(Cl)c(Cl)c1 [Compound 590] with EGFR exon 20 NPG Ins D770_N771 (Ba/F3 cells) (Homo sapiens, UniProt P00533, INS770NPG) as test system.
100 to 1000 nM

Find the measured IC50 of C=CC(=O)N1CCC2(CC1)CNC(=O)c1c2[nH]c(-c2ccnc(C)n2)c1Nc1cccc(F)c1OC [compound 644] with EGFR exon 20 NPG Ins D770_N771 (Ba/F3 cells) (Homo sapiens, UniProt P00533, INS770NPG) as test system.
< 100 nM

Find the measured IC50 of Cc1c(F)cccc1Nc1c(-c2ccnc(N)c2F)[nH]c2c1C(=O)NCC2 [Compound 692] with EGFR exon 20 NPG Ins D770_N771 (Ba/F3 cells) (Homo sapiens, UniProt P00533, INS770NPG) as test system.
100 to 1000 nM

Find the measured IC50 of COc1ccc2nccc(-c3[nH]c4c(c3Nc3cccc(F)c3OC)C(=O)NCC43CCNCC3)c2n1 [compound 685] with EGFR exon 20 NPG Ins D770_N771 (Ba/F3 cells) (Homo sapiens, UniProt P00533, INS770NPG) as test system.
100 to 1000 nM

Find the measured IC50 of C=CC(=O)N1CCC2(CC1)CNC(=O)c1c2[nH]c(-c2ccnc(N)n2)c1Nc1cccc(Cl)c1OC [Compound 556] with EGFR exon 20 NPG Ins D770_N771 (Ba/F3 cells) (Homo sapiens, UniProt P00533, INS770NPG) as test system.
< 100 nM

---

IC50 values, listed per item
- SYSTEM TESTED: EGFR L858R (Ba/F3 cells) (Homo sapiens, UniProt P00533, L858R)
- Construct: expressed in transfected cells; host or cells: Ba/F3 (murine pro-B cells), retroviral transduction, puromycin selection, IL3-independent pool
- Sequence (P00533 25-1210 L858R): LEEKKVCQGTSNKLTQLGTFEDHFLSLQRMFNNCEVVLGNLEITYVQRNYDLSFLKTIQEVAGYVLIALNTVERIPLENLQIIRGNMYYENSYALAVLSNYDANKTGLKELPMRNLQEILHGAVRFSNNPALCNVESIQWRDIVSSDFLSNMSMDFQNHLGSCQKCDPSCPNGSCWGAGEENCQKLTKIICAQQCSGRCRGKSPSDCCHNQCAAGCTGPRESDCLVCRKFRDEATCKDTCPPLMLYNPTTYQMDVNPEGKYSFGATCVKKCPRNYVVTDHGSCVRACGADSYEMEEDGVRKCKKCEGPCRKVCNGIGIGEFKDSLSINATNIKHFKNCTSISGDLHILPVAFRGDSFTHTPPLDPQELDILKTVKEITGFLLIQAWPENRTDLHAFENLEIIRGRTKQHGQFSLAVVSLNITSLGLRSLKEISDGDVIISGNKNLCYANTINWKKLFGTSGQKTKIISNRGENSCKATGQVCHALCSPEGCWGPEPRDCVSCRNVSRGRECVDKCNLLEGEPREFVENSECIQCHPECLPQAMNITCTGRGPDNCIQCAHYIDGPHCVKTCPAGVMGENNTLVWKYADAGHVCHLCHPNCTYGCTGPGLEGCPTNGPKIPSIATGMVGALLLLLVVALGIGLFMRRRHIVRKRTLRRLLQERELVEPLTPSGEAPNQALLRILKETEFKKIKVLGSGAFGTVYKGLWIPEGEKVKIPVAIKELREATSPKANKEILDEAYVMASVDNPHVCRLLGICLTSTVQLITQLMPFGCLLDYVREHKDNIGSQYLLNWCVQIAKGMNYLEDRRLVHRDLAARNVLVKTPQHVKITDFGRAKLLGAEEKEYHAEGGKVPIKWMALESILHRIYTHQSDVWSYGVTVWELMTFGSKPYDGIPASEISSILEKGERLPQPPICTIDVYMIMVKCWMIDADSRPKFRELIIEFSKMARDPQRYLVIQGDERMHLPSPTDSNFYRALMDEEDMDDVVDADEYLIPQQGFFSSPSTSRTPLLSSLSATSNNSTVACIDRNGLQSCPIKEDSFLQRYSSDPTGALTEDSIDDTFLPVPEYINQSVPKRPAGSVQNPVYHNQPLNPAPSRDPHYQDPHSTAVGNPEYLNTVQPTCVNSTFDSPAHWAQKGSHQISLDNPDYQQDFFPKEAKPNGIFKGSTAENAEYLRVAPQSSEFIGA
- TEST DETAILS: Inhibitor activity on EGFR phosphorylation (pEGFR AlphaLISA, 2 h), Ba/F3 EGFR L858R
- Type: cell-based

Worked cases, IC50 given:
COc1c(Cl)cccc1Nc1c(-c2ccncc2F)[nH]c2c1C(=O)NC[C@@]21CCN(CC(F)(F)F)C1 [compound 817]
< 100 nM
COc1c(F)cccc1Nc1c(-c2ccncn2)[nH]c2c1C(=O)NCC2C[C@H]1COCCO1 (single isomer, unassigned) [Compound 530]
< 100 nM

Query compound follows.
Consider the compound COc1c(Cl)cccc1Nc1c(-c2ccncn2)[nH]c2c1C(=O)NCC2C[C@H]1COCCO1 (single isomer, unassigned) [Compound 527] and give its recorded IC50.
< 100 nM

---

- SYSTEM TESTED: EGFR WT (Ba/F3 cells) (Homo sapiens)
- Sequence (P00533 25-1210): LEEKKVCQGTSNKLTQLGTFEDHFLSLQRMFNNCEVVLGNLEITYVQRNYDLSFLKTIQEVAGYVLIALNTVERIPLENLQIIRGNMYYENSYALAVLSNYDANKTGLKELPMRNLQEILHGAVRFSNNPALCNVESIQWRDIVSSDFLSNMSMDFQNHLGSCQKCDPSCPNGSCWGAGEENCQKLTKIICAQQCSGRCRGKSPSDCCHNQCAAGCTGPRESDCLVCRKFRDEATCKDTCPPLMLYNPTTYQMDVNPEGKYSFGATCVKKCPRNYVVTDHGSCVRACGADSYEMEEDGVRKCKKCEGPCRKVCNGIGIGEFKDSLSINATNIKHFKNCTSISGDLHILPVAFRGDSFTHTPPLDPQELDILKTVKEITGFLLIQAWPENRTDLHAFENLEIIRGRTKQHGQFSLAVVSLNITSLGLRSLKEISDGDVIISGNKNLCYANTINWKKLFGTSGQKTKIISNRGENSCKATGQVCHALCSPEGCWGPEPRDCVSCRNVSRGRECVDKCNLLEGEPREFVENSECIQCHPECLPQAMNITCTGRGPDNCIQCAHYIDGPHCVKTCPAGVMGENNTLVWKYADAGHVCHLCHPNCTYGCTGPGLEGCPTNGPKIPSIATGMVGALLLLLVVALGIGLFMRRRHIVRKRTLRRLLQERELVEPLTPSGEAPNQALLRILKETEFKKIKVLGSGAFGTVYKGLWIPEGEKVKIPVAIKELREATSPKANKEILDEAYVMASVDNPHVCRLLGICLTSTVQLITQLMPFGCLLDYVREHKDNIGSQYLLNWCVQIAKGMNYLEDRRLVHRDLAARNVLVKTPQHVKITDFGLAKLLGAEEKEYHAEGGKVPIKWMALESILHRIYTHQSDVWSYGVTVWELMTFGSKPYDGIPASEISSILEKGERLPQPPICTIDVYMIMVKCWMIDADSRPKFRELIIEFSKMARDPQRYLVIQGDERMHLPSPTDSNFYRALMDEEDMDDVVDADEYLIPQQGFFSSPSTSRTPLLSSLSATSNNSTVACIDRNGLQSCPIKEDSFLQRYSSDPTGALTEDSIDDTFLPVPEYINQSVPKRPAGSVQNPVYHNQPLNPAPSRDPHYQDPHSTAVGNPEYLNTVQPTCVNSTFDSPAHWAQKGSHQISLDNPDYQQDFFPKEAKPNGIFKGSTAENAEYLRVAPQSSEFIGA
- TEST DETAILS: Inhibitor activity on EGFR-dependent cell growth (CellTiter-Glo, 72 h), Ba/F3 EGFR WT
- TEST SETTINGS: read-out: BaF3 WT IC50
pIC50: −log10 of the molar value.
MEASURE NAME: pIC50

Worked cases, pIC50 given:
COc1c(Cl)cccc1Nc1c(-c2ccncc2F)[nH]c2c1C(=O)NC[C@@H]2CCN(C)C
< 6.00
COc1c(Cl)cccc1Nc1c(-c2ccncn2)[nH]c2c1C(=O)NCC2C[C@H]1COCCO1 (single isomer, unassigned) [Compound 527]
6.00 to 7.00
COc1c(Cl)cccc1Nc1c(-c2ccncc2F)[nH]c2c1C(=O)NC[C@H]2CC(N)=O
< 6.00
COc1c(Cl)cccc1Nc1c(-c2ccnc(C(F)(F)F)n2)[nH]c2c1C(=O)NCC2
< 6.00
COc1c(Cl)cccc1Nc1c(-c2ccnc3ccc(OC4(C)COC4)nc23)[nH]c2c1C(=O)NCC2
> 7.00

Find the measured pIC50 of `COc1c(Nc2c(-c3ccnc(N)n3)[nH]c3c2C(=O)NCC3)cccc1C(C)=O` with EGFR WT (Ba/F3 cells) (Homo sapiens) as test system.
< 6.00

Find the measured pIC50 of `COC(=O)N1CC[C@@]2(CNC(=O)c3c2[nH]c(-c2ccncc2F)c3Nc2cccc(Cl)c2OC)C1` with EGFR WT (Ba/F3 cells) (Homo sapiens) as test system.
< 6.00

Find the measured pIC50 of `COc1c(Cl)cccc1Nc1c(-c2ccnc3[nH]c(=O)c(OC)nc23)[nH]c2c1C(=O)NCC2` with EGFR WT (Ba/F3 cells) (Homo sapiens) as test system.
6.00 to 7.00

Find the measured pIC50 of `COc1c(F)cccc1Nc1c2c(n(C)c1-c1ccncc1F)CCNC2=O` with EGFR WT (Ba/F3 cells) (Homo sapiens) as test system.
< 6.00

Find the measured pIC50 of `COc1c(Cl)cccc1Nc1c(-c2ccncc2F)[nH]c2c1C(=O)NCC21CCN(C(=O)/C=C/CN(C)C)CC1` with EGFR WT (Ba/F3 cells) (Homo sapiens) as test system.
< 6.00

Find the measured pIC50 of COCC[C@H]1CNC(=O)c2c1[nH]c(-c1ccncn1)c2Nc1cccc(Cl)c1OC [445b] with EGFR WT (Ba/F3 cells) (Homo sapiens) as test system.
< 6.00

Find the measured pIC50 of `COc1cc2nccc(-c3[nH]c4c(c3Nc3cccc(F)c3OC)C(=O)NCC4)c2nc1OC` with EGFR WT (Ba/F3 cells) (Homo sapiens) as test system.
> 7.00

Find the measured pIC50 of `COc1ncc2nccc(-c3[nH]c4c(c3Nc3cccc(Cl)c3Cl)C(=O)NCC4)c2n1` with EGFR WT (Ba/F3 cells) (Homo sapiens) as test system.
6.00 to 7.00

Find the measured pIC50 of COc1c(Cl)cccc1Nc1c(-c2ccncc2F)[nH]c2c1C(=O)NCC2C[C@@H]1CO[C@@H](CN(C)C)CO1 (single isomer, unassigned) [Compound 563] with EGFR WT (Ba/F3 cells) (Homo sapiens) as test system.
< 6.00

Find the measured pIC50 of COc1c(F)cccc1Nc1c(-c2ccnc(C)n2)[nH]c2c1C(=O)NCC2C[C@H]1COCCO1 (single isomer, unassigned) [Compound 603] with EGFR WT (Ba/F3 cells) (Homo sapiens) as test system.
< 6.00
